- Tested on: Intracellular amastigotes of T. cruzi (Dm28c-Luc)
- Assay Info: microbe, parasite or virus in culture
- Format: cell-based, Trypanosoma cruzi
- Particulars: Trypanosoma cruzi, Vero; read-out: Intracellular Amastigotes pIC50 (converted)
Measured Parameter: IC50 (µM)
I only need the number, in µM, no unit after it.

# input I have this compound here, "Nc1nnc(-c2cnn(-c3ccc(Br)cc3)c2)s1" , and I need its recorded IC50.
# output 28.2

# input Which IC50 value belongs to "COc1ccc(-n2cc(-c3nnc(N)s3)cn2)cc1" ?
# output 24.5

# input Value lookup for IC50; key = "Nc1nnc(-c2cnn(-c3cccc(Cl)c3)c2)s1"
# output 67.6

# input Need IC50, item "Nc1nnc(-c2cnn(-c3ccc([N+](=O)[O-])cc3)c2)s1"
# output 58.9

# input For the compound O=C(Cn1ccnc1[N+](=O)[O-])NCc1ccccc1 [Bz, benznidazole, reference compound] , what IC50 is on record?
# output 3.63

# input I'd like to know its IC50. The compound in question is "Nc1nnc(-c2cnn(-c3cc(Cl)cc(Cl)c3)c2)s1"
# output 58.9

# input Dear colleague, I am looking for the recorded IC50 of the following compound: "Nc1nnc(-c2cnn(-c3ccc(Cl)c(Cl)c3)c2)s1"
# output 18.6

# input What does the data say about its IC50? Entry: "Nc1nnc(-c2cnn(-c3ccccc3)c2)s1"
# output 69.2

# input So what's the measured IC50 for this one? "Nc1nnc(-c2cnn(-c3ccc(Cl)cc3Cl)c2)s1"
# output 13.5

# input Fill in the blank: the reported IC50 of "Nc1nnc(-c2cnn(-c3ccc([N+](=O)[O-])cc3)c2N)s1" is ____.
# output 10.5

# input I am curious: what IC50 value has been reported for "Nc1nnc(-c2cnn(-c3ccc(Cl)c(Cl)c3)c2N)s1" ?
# output 33.9

# input What value of IC50 has been recorded for this entry: "Nc1nnc(-c2cnn(-c3ccc(Br)cc3)c2N)s1"
# output 69.2

# input State the recorded IC50 for this entry: "Nc1nnc(-c2cnn(-c3cccc(F)c3)c2)s1"
# output 67.6

###

- System: Intracellular amastigotes of T. cruzi (Dm28c-Luc)
- Assay Info: microbe, parasite or virus in culture
- Type: cell-based, Trypanosoma cruzi
Would you kindly list Intracellular Amastigotes SI (CC50 of Vero cells/IC50 of intracellular amastigotes) for each of these molecules?

# input # query: Intracellular Amastigotes SI (CC50 of Vero cells/IC50 of intracellular amastigotes) of entry "Nc1nnc(-c2cnn(-c3ccc(F)cc3)c2)s1"
# output >7.14

# input I'd like to know its Intracellular Amastigotes SI (CC50 of Vero cells/IC50 of intracellular amastigotes). The molecule in question is "Nc1nnc(-c2cnn(-c3cc(Cl)cc(Cl)c3)c2)s1"
# output >8.29

# input // lookup Intracellular Amastigotes SI (CC50 of Vero cells/IC50 of intracellular amastigotes) for "Nc1nnc(-c2cnn(-c3cccc(Cl)c3)c2)s1"
# output >7.73

# input For "Nc1nnc(-c2cnn(-c3ccc(Cl)c(Cl)c3)c2)s1" , what is its reported Intracellular Amastigotes SI (CC50 of Vero cells/IC50 of intracellular amastigotes)?
# output >25.64

# input Fill in: Intracellular Amastigotes SI (CC50 of Vero cells/IC50 of intracellular amastigotes) of "COc1ccc(-n2ncc(-c3nnc(N)s3)c2N)cc1" is ___
# output >7.14

# input Name the reported Intracellular Amastigotes SI (CC50 of Vero cells/IC50 of intracellular amastigotes) value associated with the molecule "Nc1nnc(-c2cnn(-c3ccccc3)c2)s1"
# output >7.49

###

- System: Trypomastigotes of T. cruzi (Dm28c-Luc)
- Assay Info: microbe, parasite or virus in culture
- Format: cell-based, Trypanosoma cruzi
Give measured Trypomastigotes SI (CC50 of Vero cells/IC50 of trypomastigotes) for each item. Keep answers brief.

# input # query: Trypomastigotes SI (CC50 of Vero cells/IC50 of trypomastigotes) | item "Nc1nnc(-c2cnn(-c3ccc(Cl)cc3)c2)s1" | system: Trypomastigotes of T. cruzi (Dm28c-Luc)
# output >5

# input Test system Trypomastigotes of T. cruzi (Dm28c-Luc); read-out Trypomastigotes SI (CC50 of Vero cells/IC50 of trypomastigotes); what value for "Nc1nnc(-c2cnn(-c3cc(Cl)cc(Cl)c3)c2N)s1" ?
# output >5

# input Value wanted: Trypomastigotes SI (CC50 of Vero cells/IC50 of trypomastigotes) (Trypomastigotes of T. cruzi (Dm28c-Luc)) of entry O=C(Cn1ccnc1[N+](=O)[O-])NCc1ccccc1 [Bz, benznidazole, reference compound]
# output >38.88

# input Give Trypomastigotes SI (CC50 of Vero cells/IC50 of trypomastigotes) (Trypomastigotes of T. cruzi (Dm28c-Luc)) of the following compound: "Nc1nnc(-c2cnn(-c3cc(Cl)cc(Cl)c3)c2)s1"
# output >5

# input Form field - read-out: Trypomastigotes SI (CC50 of Vero cells/IC50 of trypomastigotes); system: Trypomastigotes of T. cruzi (Dm28c-Luc); submitted item: "Nc1nnc(-c2cnn(-c3ccc([N+](=O)[O-])cc3)c2N)s1"
# output >5

# input Value wanted: Trypomastigotes SI (CC50 of Vero cells/IC50 of trypomastigotes) (Trypomastigotes of T. cruzi (Dm28c-Luc)) of entry "Nc1nnc(-c2cnn(-c3ccccc3)c2)s1"
# output >5

# input Enter reported Trypomastigotes SI (CC50 of Vero cells/IC50 of trypomastigotes) observed with Trypomastigotes of T. cruzi (Dm28c-Luc) for "Nc1nnc(-c2cnn(-c3ccc(Cl)cc3)c2N)s1"
# output >5

# input Notebook entry, Trypomastigotes of T. cruzi (Dm28c-Luc) assay: Trypomastigotes SI (CC50 of Vero cells/IC50 of trypomastigotes) of "Nc1nnc(-c2cnn(-c3cccc(Br)c3)c2)s1" = ?
# output >5

# input State its Trypomastigotes SI (CC50 of Vero cells/IC50 of trypomastigotes) on Trypomastigotes of T. cruzi (Dm28c-Luc): "Nc1nnc(-c2cnn(-c3ccc(F)cc3)c2)s1"
# output >5

# input Record lookup: for Trypomastigotes of T. cruzi (Dm28c-Luc), what Trypomastigotes SI (CC50 of Vero cells/IC50 of trypomastigotes) belongs to "Nc1nnc(-c2cnn(-c3ccc(Cl)c(Cl)c3)c2)s1" ?
# output >5

# input Entry "Nc1nnc(-c2cnn(-c3ccccc3)c2N)s1" , system Trypomastigotes of T. cruzi (Dm28c-Luc): what Trypomastigotes SI (CC50 of Vero cells/IC50 of trypomastigotes) was measured?
# output >5

# input Give Trypomastigotes SI (CC50 of Vero cells/IC50 of trypomastigotes) (Trypomastigotes of T. cruzi (Dm28c-Luc)) of the following compound: "COc1ccc(-n2cc(-c3nnc(N)s3)cn2)cc1"
# output >9.43

# input Please state recorded Trypomastigotes SI (CC50 of Vero cells/IC50 of trypomastigotes) (tested on Trypomastigotes of T. cruzi (Dm28c-Luc)) of "Nc1nnc(-c2cnn(-c3cccc(Cl)c3)c2)s1"
# output >5

# input Value wanted: Trypomastigotes SI (CC50 of Vero cells/IC50 of trypomastigotes) (Trypomastigotes of T. cruzi (Dm28c-Luc)) of entry "Nc1nnc(-c2cnn(-c3cccc(Cl)c3)c2N)s1"
# output >5

# input Request: Trypomastigotes SI (CC50 of Vero cells/IC50 of trypomastigotes), test system Trypomastigotes of T. cruzi (Dm28c-Luc), entry "Nc1nnc(-c2cnn(-c3cccc(F)c3)c2)s1"
# output >5

# input Fill in the recorded Trypomastigotes SI (CC50 of Vero cells/IC50 of trypomastigotes) for this compound, with Trypomastigotes of T. cruzi (Dm28c-Luc) as test system: "Nc1nnc(-c2cnn(-c3ccc(Br)cc3)c2N)s1"
# output >5

# input Give Trypomastigotes of T. cruzi (Dm28c-Luc) Trypomastigotes SI (CC50 of Vero cells/IC50 of trypomastigotes) for "Nc1nnc(-c2cnn(-c3cccc(F)c3)c2N)s1"
# output >5

# input Fill in the recorded Trypomastigotes SI (CC50 of Vero cells/IC50 of trypomastigotes) for this compound, with Trypomastigotes of T. cruzi (Dm28c-Luc) as test system: "Nc1nnc(-c2cnn(-c3ccc(Cl)c(Cl)c3)c2N)s1"
# output >6.88

# input Identify the measured Trypomastigotes SI (CC50 of Vero cells/IC50 of trypomastigotes) of "Nc1nnc(-c2cnn(-c3ccc(F)cc3)c2N)s1" for Trypomastigotes of T. cruzi (Dm28c-Luc).
# output >5

# input Recorded Trypomastigotes SI (CC50 of Vero cells/IC50 of trypomastigotes) for "Nc1nnc(-c2cnn(-c3ccc(Br)cc3)c2)s1" with Trypomastigotes of T. cruzi (Dm28c-Luc), please?
# output >5

# input Provide the documented Trypomastigotes SI (CC50 of Vero cells/IC50 of trypomastigotes) with Trypomastigotes of T. cruzi (Dm28c-Luc) as the system for "Nc1nnc(-c2cnn(-c3cccc(Br)c3)c2N)s1"
# output >5

# input Entry "Nc1nnc(-c2cnn(-c3ccc([N+](=O)[O-])cc3)c2)s1" , system Trypomastigotes of T. cruzi (Dm28c-Luc): what Trypomastigotes SI (CC50 of Vero cells/IC50 of trypomastigotes) was measured?
# output >5

# input // fetch Trypomastigotes of T. cruzi (Dm28c-Luc) Trypomastigotes SI (CC50 of Vero cells/IC50 of trypomastigotes) for "COc1ccc(-n2ncc(-c3nnc(N)s3)c2N)cc1"
# output >100

# input Form entry - test system: Trypomastigotes of T. cruzi (Dm28c-Luc); read-out: Trypomastigotes SI (CC50 of Vero cells/IC50 of trypomastigotes); compound: "Nc1nnc(-c2cnn(-c3ccc(Cl)cc3Cl)c2N)s1"
# output >5
